Test: in vitro
Format: cell-based
Details: human; MDA-MB-231 cells; read-out: cytotoxic activity IC50
pIC50: −log10 of the molar value.
assay.endpoint: pIC50

CC(C)[C@H]1C(=O)N(C)[C@@H](C)C(=O)NCCC[C@H](NC(=O)/C=C/C=C/C=O)C(=O)N1C [Compound 5, sclerotiotide F]
< 4.52
C/C=C/C=C/C=C/C(=O)N[C@H]1CCCNC(=O)[C@H](C)N(C)C(=O)[C@H](C(C)C)N(C)C1=O [Compound 6, sclerotiotide B]
< 4.52

Shift focus to the following entry.
Tell me the measured pIC50 of CO[C@H](C)[C@@H](/C=C/C=C/C(=O)N(C)[C@H]1CCCN(C)C(=O)[C@H](C)N(C)C(=O)[C@H](C(C)C)N(C)C1=O)OC [Compound 3] , please. < 4.52

###

Provide the recorded MIC, B. cereus for the entries that follow.
Test system: Bacillus cereus
Assay: microbe, parasite or virus in culture
Give bare numbers, in µM.

Example cases with answers are listed next.
CO[C@H](/C=C/C=C/C(=O)N[C@H]1CCCNC(=O)[C@H](C)N(C)C(=O)[C@H](C(C)C)N(C)C1=O)[C@@H](C)O
25.0
CC(C)[C@H]1C(=O)N(C)[C@@H](C)C(=O)NCCC[C@H](NC(=O)/C=C/C=C/C=O)C(=O)N1C [Compound 5, sclerotiotide F]
25.0
CC(C)[C@H]1C(=O)N(C)[C@@H](C)C(=O)NCCC[C@H](NC(=O)/C=C/C=C/C(=O)O)C(=O)N1C
3.13

Shift focus to the following entry.
Value wanted: MIC, B. cereus (Bacillus cereus) of entry `COC(=O)/C=C/C=C/C(=O)N[C@H]1CCCNC(=O)[C@H](C)N(C)C(=O)[C@H](C(C)C)N(C)C1=O` 6.25

###

Experiment: in vitro
Type: cell-based
Conditions: human; A549 cells; read-out: cytotoxic activity IC50
assay.endpoint: IC50

Example cases with answers are listed next.
CO[C@H](C)[C@@H](/C=C/C=C/C(=O)N(C)[C@H]1CCCN(C)C(=O)[C@H](C)N(C)C(=O)[C@H](C(C)C)N(C)C1=O)OC
> 30 µM
CC(C)[C@H]1C(=O)N(C)[C@@H](C)C(=O)NCCC[C@H](NC(=O)/C=C/C=C/C=O)C(=O)N1C [Compound 5, sclerotiotide F]
> 30 µM

Shift focus to the following entry.
Tell me the measured IC50 of `COC(=O)/C=C/C=C/C(=O)N[C@H]1CCCNC(=O)[C@H](C)N(C)C(=O)[C@H](C(C)C)N(C)C1=O` , please. > 30 µM

###

Experiment: in vitro
Format: cell-based
Conditions: human; MDA-MB-231 cells; read-out: cytotoxic activity IC50
assay.endpoint: IC50

List the reported IC50 of each molecule below.
1. CO[C@H](/C=C/C=C/C(=O)N[C@H]1CCCNC(=O)[C@H](C)N(C)C(=O)[C@H](C(C)C)N(C)C1=O)[C@@H](C)O [Compound 4]
2. COC(=O)/C=C/C=C/C(=O)N[C@H]1CCCNC(=O)[C@H](C)N(C)C(=O)[C@H](C(C)C)N(C)C1=O [Compound 2]
3. CC(C)[C@H]1C(=O)N(C)[C@@H](C)C(=O)NCCC[C@H](NC(=O)/C=C/C=C/C(=O)O)C(=O)N1C [Compound 1]

> 30 µM
> 30 µM
> 30 µM

###

Assay: in vitro
Format: cell-based
Conditions: human; SH-SY5Y cells; read-out: cytotoxic activity IC50
pIC50: −log10 of the molar value.
assay.endpoint: pIC50

Example cases with answers are listed next.
COC(=O)/C=C/C=C/C(=O)N[C@H]1CCCNC(=O)[C@H](C)N(C)C(=O)[C@H](C(C)C)N(C)C1=O
< 4.52
CO[C@H](/C=C/C=C/C(=O)N[C@H]1CCCNC(=O)[C@H](C)N(C)C(=O)[C@H](C(C)C)N(C)C1=O)[C@@H](C)O
< 4.52

Tell me the measured pIC50 of CC(C)[C@H]1C(=O)N(C)[C@@H](C)C(=O)NCCC[C@H](NC(=O)/C=C/C=C/C=O)C(=O)N1C [Compound 5, sclerotiotide F] , please. < 4.52

These entries and their values trace back to paper PMC7694092.
